Measured cell viability by item
Test system: P12-Ichikawa
assay_overview: cell viability relative to DMSO control; higher = less cytotoxic
applied_conditions: RPMI 5 mM glucose + 10% FBS; 48 h; 0.00702 µM

# compound, study_system, cell viability
measured = [
    ("C[S+](=O)([O-])Oc1ccc2c(NC(N)=O)c(C(=O)c3ccc(Cl)cc3Cl)oc2c1", "P12-Ichikawa", "121%"),
    ("Nc1n[nH]c2nnc(-c3c(-c4ccccc4)nn4ccccc34)cc12", "P12-Ichikawa", "123%"),
    ("CCNC(=O)Nc1ccc(Oc2ncnc(N)c2/C=N/OC)cc1Cl", "P12-Ichikawa", "117%"),
    ("CC(C)C1CCC(C(=O)N[C@H](Cc2ccccc2)C(=O)O)CC1 (some centres not stated)", "P12-Ichikawa", "91.9%"),
    ("O=C(O)CCCCCC(=O)NN=C1CCCC1", "P12-Ichikawa", "104%"),
    ("Cc1ccc(C(=O)Nc2cccc(C(F)(F)F)c2)cc1Nc1nc(-c2cccnc2)nc2c1cnn2C", "P12-Ichikawa", "88.9%"),
    ("COc1c(Cl)cc2c([nH]c3cnccc32)c1NC(=O)c1cccnc1C", "P12-Ichikawa", "107%"),
    ("COc1cc(C(=O)NC2CCN(C)CC2)ccc1Nc1ncc2c(n1)N(C1CCCC1)CCC(=O)N2C(C)C", "P12-Ichikawa", "95.1%"),
    ("C[C@]12CCC3c4ccc(O)cc4CCC3C1CCC2=O (some centres not stated)", "P12-Ichikawa", "96.8%"),
    ("CCCCc1ccc2[nH]c(NC(=O)OC)nc2c1", "P12-Ichikawa", "101%"),
    ("CC(C)(N)c1ccc(-c2nc3ccccc3nc2-c2ccccc2)cc1", "P12-Ichikawa", "109%"),
    ("CC(=O)SC[C@@H](C)C(=O)N1CCC[C@H]1C(=O)N[C@@H](Cc1ccccc1)C(=O)O", "P12-Ichikawa", "97.6%"),
    ("CCC(C)CCCCC(=O)N[C@@H](CCN)C(=O)NC(C(=O)N[C@H](CCN)C(=O)N[C@@H]1CCNC(=O)C([C@@H](C)O)NC(=O)[C@@H](CCN)NC(=O)[C@@H](CCN)NC(=O)[C@@H](CC(C)C)NC(=O)[C@H](Cc2ccccc2)NC(=O)[C@H](CCN)NC1=O)[C@@H](C)O (some centres not stated)", "P12-Ichikawa", "115%"),
    ("CN(CCOc1ccc(CC2SC(=O)NC2=O)cc1)c1ccccn1 (configuration not stated)", "P12-Ichikawa", "122%"),
    ("OC(=O)\\C1=C\\N(C2CC2)C3=CC(=C(F)C=C3C1=O)N4CCNCC4", "P12-Ichikawa", "115%"),
    ("CNc1nc(-c2ccc3c(N)n[nH]c3c2)cc(N2C[C@@H](C(=O)NC3CCCCC3)CC[C@H]2C)n1", "P12-Ichikawa", "82.5%"),
    ("Cc1cc(Nc2ncc3c(n2)N(C)C(=O)N(c2cc(NC(=O)c4cccc(C(F)(F)F)c4)ccc2C)C3)n(C)n1", "P12-Ichikawa", "124%"),
]
